tested on: Candida albicans; assay: Antifungal activity against Candida albicans ATCC 10231 assessed as growth inhibition after 72 hrs at 28 degC by serial dilution method; assay type: functional
endpoint-name: log10 MFC99.5 (log10 of the value in ×10⁻² umol/ml)

>  <compound>
c1ccc(-c2ccc(C(c3ccccc3)n3ccnc3)cc2)cc1 (centres undefined) [BIFONAZOLE]

>  <log10 MFC99.5>
1.68

$$$$
>  <compound>
O=C1CSC(c2c(Cl)cccc2Cl)N1c1nc(C23CC4CC(CC(C4)C2)C3)cs1 (centres undefined)

>  <log10 MFC99.5>
1.81

$$$$
>  <compound>
O=C1CSC(c2ccc(Br)cc2)N1c1nc(C23CC4CC(CC(C4)C2)C3)cs1 (centres undefined)

>  <log10 MFC99.5>
1.87

$$$$
>  <compound>
COc1ccc(OC)c(C2SCC(=O)N2c2nc(C34CC5CC(CC(C5)C3)C4)cs2)c1 (centres undefined)

>  <log10 MFC99.5>
2.04

$$$$
>  <compound>
O=C1CSC(c2cccc(Cl)c2)N1c1nc(C23CC4CC(CC(C4)C2)C3)cs1 (centres undefined)

>  <log10 MFC99.5>
0.06

$$$$
>  <compound>
O=C1CSC(c2ccccc2Cl)N1c1nc(C23CC4CC(CC(C4)C2)C3)cs1 (centres undefined)

>  <log10 MFC99.5>
0.37

$$$$
>  <compound>
O=C1CSC(c2ccc(Cl)cc2)N1c1nc(C23CC4CC(CC(C4)C2)C3)cs1 (centres undefined)

>  <log10 MFC99.5>
0.06

$$$$
>  <compound>
O=C1CSC(c2ccc([N+](=O)[O-])cc2)N1c1nc(C23CC4CC(CC(C4)C2)C3)cs1 (centres undefined)

>  <log10 MFC99.5>
0.35

$$$$
>  <compound>
CC(=O)N1CCN(c2ccc(OCC3COC(Cn4ccnc4)(c4ccc(Cl)cc4Cl)O3)cc2)CC1 (centres undefined) [KETOCONAZOLE]

>  <log10 MFC99.5>
1.98

$$$$

====

test system: Bacillus cereus; assay: Antibacterial activity against clinical isolates of Bacillus cereus assessed as growth inhibition after 24 hrs at 37 degC by iodonitrotetrazolium chloride staining based microdilution broth assay; format: functional
endpoint-name: log10(MBC) (log10 of the value in µM)

>  <compound>
O=C1CSC(c2cccc(F)c2)N1c1nc(C23CC4CC(CC(C4)C2)C3)cs1 (centres undefined)

>  <experimental-target>
Bacillus cereus

>  <log10(MBC)>
2.70

$$$$
>  <compound>
O=C1CSC(c2cccc(Cl)c2Cl)N1c1nc(C23CC4CC(CC(C4)C2)C3)cs1 (centres undefined)

>  <experimental-target>
Bacillus cereus

>  <log10(MBC)>
1.80

$$$$
>  <compound>
COc1ccc(OC)c(C2SCC(=O)N2c2nc(C34CC5CC(CC(C5)C3)C4)cs2)c1 (centres undefined)

>  <experimental-target>
Bacillus cereus

>  <log10(MBC)>
2.64

$$$$
>  <compound>
O=C1CSC(c2ccccc2Cl)N1c1nc(C23CC4CC(CC(C4)C2)C3)cs1 (centres undefined)

>  <experimental-target>
Bacillus cereus

>  <log10(MBC)>
2.10

$$$$
>  <compound>
O=C1CSC(c2c(Cl)cccc2Cl)N1c1nc(C23CC4CC(CC(C4)C2)C3)cs1 (centres undefined)

>  <experimental-target>
Bacillus cereus

>  <log10(MBC)>
2.81

$$$$
>  <compound>
O=C1CSC(c2ccc(Cl)cc2)N1c1nc(C23CC4CC(CC(C4)C2)C3)cs1 (centres undefined)

>  <experimental-target>
Bacillus cereus

>  <log10(MBC)>
1.80

$$$$
>  <compound>
O=C1CSC(c2ccc([N+](=O)[O-])cc2)N1c1nc(C23CC4CC(CC(C4)C2)C3)cs1 (centres undefined)

>  <experimental-target>
Bacillus cereus

>  <log10(MBC)>
1.49

$$$$
>  <compound>
O=C1CSC(c2ccc(Br)cc2)N1c1nc(C23CC4CC(CC(C4)C2)C3)cs1 (centres undefined)

>  <experimental-target>
Bacillus cereus

>  <log10(MBC)>
2.32

$$$$
>  <compound>
O=C1CSC(c2cccc(Cl)c2)N1c1nc(C23CC4CC(CC(C4)C2)C3)cs1 (centres undefined)

>  <experimental-target>
Bacillus cereus

>  <log10(MBC)>
1.80

$$$$
